# Protocol Summary: Phase 1 SAD/MAD study: plasma pharmacokinetics of Compound 1a (LC-MS-MS, noncompartmental analysis)
# Type: in vivo, human
# Measurement Context: human, plasma, oral, single-dose administration of 40 mg to 3,000 mg; read-out: average plasma Tmax values across dose levels
Measured Attribute: Tmax

1) O.O=C([O-])c1nn[nH]c1Oc1ccc(-c2ccc(C3CC(F)(F)C3)cc2)cc1.[Na+] :: 1.9 to 2.9 h

* * *

# Protocol Summary: Phase 1 SAD/MAD study: plasma pharmacokinetics of Compound 1a (LC-MS-MS, noncompartmental analysis)
# Assay type: in vivo, human
# Measurement Context: human, plasma, po, 1000 mg, SAD 1,000 mg oral, fed, average
Measured Attribute: Cmax (ng/mL)

1) O.O=C([O-])c1nn[nH]c1Oc1ccc(-c2ccc(C3CC(F)(F)C3)cc2)cc1.[Na+] :: 14700

* * *

# Protocol Summary: Phase 1 SAD/MAD study: plasma pharmacokinetics of Compound 1a (LC-MS-MS, noncompartmental analysis)
# Type: in vivo, human
# Measurement Context: human, plasma, po, 1000 mg, SAD 1,000 mg oral, fed, average, plasma; read-out: AUC0-24
# Experimental: Pharmacokinetics: Human K2-ethylenediaminetetraacetic acid (K2-EDTA) plasma samples were analyzed for Compound 1a by a validated method over a range of 1.0 to 1000 ng/mL based on the analysis of 100 μL of sample. Human plasma containing Compound 1a and the internal standard, Compound 1a-D4, was extracted using liquid-liquid extraction and analyzed by a Sciex API 4000 LC-MS-MS equipped with an HPLC column. […]
Measured Attribute: AUC(0-t) (µg·h/mL)

1. O.O=C([O-])c1nn[nH]c1Oc1ccc(-c2ccc(C3CC(F)(F)C3)cc2)cc1.[Na+] [Compound 1a] :: 180

* * *

# Protocol Summary: Phase 1 SAD/MAD study: plasma pharmacokinetics of Compound 1a (LC-MS-MS, noncompartmental analysis)
# Assay type: in vivo, human
# Measurement Context: human, plasma, oral, 3000 mg, single dose 3000 mg, healthy volunteers, geometric mean; read-out: AUClast
Measured Attribute: AUC(0-t) (µg·h/mL)

1. O.O=C([O-])c1nn[nH]c1Oc1ccc(-c2ccc(C3CC(F)(F)C3)cc2)cc1.[Na+] :: 225

* * *

# Protocol Summary: Phase 1 SAD/MAD study: plasma pharmacokinetics of Compound 1a (LC-MS-MS, noncompartmental analysis)
# Type: in vivo, human
# Measurement Context: human, plasma, po, 3000 mg, SAD 3,000 mg oral, fasted, average
Measured Attribute: Cmax (ng/mL)

1. O.O=C([O-])c1nn[nH]c1Oc1ccc(-c2ccc(C3CC(F)(F)C3)cc2)cc1.[Na+] :: 22500

* * *

# Protocol Summary: Phase 1 SAD/MAD study: plasma pharmacokinetics of Compound 1a (LC-MS-MS, noncompartmental analysis)
# Format: in vivo, human
# Measurement Context: human, plasma, po, 40 mg, SAD 40 mg oral, fasted, average
# Method: Pharmacokinetics: Human K2-ethylenediaminetetraacetic acid (K2-EDTA) plasma samples were analyzed for Compound 1a by a validated method over a range of 1.0 to 1000 ng/mL based on the analysis of 100 μL of sample. Human plasma containing Compound 1a and the internal standard, Compound 1a-D4, was extracted using liquid-liquid extraction and analyzed by a Sciex API 4000 LC-MS-MS equipped with an HPLC column. […]
Measured Attribute: AUC(0-inf) (ng·h/mL)

1) O.O=C([O-])c1nn[nH]c1Oc1ccc(-c2ccc(C3CC(F)(F)C3)cc2)cc1.[Na+] :: 14000
